From: patent US5994349A

Each entry below carries its reported Tox.
system: neurotoxicity (rotorod); assay: rotorod toxicity, oral rat (Phase VIA/VIB); type: in vivo, male Sprague-Dawley rats; details: rat oral, 30 mg/kg, 4.00 h

Example cases with answers are listed next.
compound="COC(=O)[C@@H]1C(=O)C2=C(C[C@H]1C)Nc1ccccc1S2 (relative stereo)" observed_measurement=0/4
compound="CCOC(=O)[C@@H]1C(=O)C2=C(C[C@H]1C)Nc1ccc(C)cc1S2 (relative stereo)" observed_measurement=0/4
compound="CCOC(=O)[C@@H]1C(=O)C2=C(C[C@H]1C)Nc1ccccc1S2 (relative stereo)" observed_measurement=0/4
compound="COC(=O)[C@@H]1C(=O)C2=C(C[C@H]1C)Nc1ccc(Cl)cc1S2 (relative stereo)" observed_measurement=0/4
compound="CCOC(=O)[C@@H]1C(=O)C2=C(C[C@H]1C)Nc1ccc(Cl)cc1S2 (relative stereo)" observed_measurement=0/4

**Q:** Sample C[C@@H]1CC2=C(Sc3cc(Br)ccc3N2)C(=O)[C@H]1C(=O)OC(C)(C)C (relative stereo) — what was its Tox?
**A:** 0/4
